Tested on: Saccharomyces cerevisiae
assay procedure: protein stability index of tFT-peptide fusion (C-terminal peptide) (PSI (0-1 scale)); higher = more stable (slower turnover);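 further: PSI is a weighted mean of sequencing reads over stability bins, variants kept only with over 10 reads, mCherry proximal and sfGFP distal, peptide attached via GGGS linker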
measurement context: genetic background: das1 deletion; temperature: 37 C
Given measured protein stability index, output Condition met if it is greater than or equal to 0.4 and Condition not met if not.

Example entries and their recorded answers appear below.
[[record]]
sequence_data = "IFSFRWVLPFWL"
classification = "Condition met"

[[record]]
sequence_data = "SGWGGGTWVKMG"
classification = "Condition met"

[[record]]
sequence_data = "LVSLCYAYPRYC"
classification = "Condition met"

[[record]]
sequence_data = "CIHMNCSMMIIS"
classification = "Condition not met"

[[record]]
sequence_data = "WSNICFWCGVWS"
classification = "Condition met"


Query: Decide: protein stability index of `AFFFCVVVLFSF` >= 0.4?
Response: Condition not met

Query: Decide: protein stability index of `LTFRFGVNPYVF` >= 0.4?
Response: Condition met

Query: Decide: protein stability index of `FLIVLLVIFFGF` >= 0.4?
Response: Condition not met

###

Test system: Saccharomyces cerevisiae
assay procedure: protein stability index of tFT-peptide fusion (C-terminal peptide) (PSI (0-1 scale)); higher = more stable (slower turnover)
measurement context: genetic background: wild type; temperature: 30 C
Assign protein stability index to each entry below.
Numbers only.

[[record]]
sequence_data = "YVCVVSVLLGLL"
test_result = 0.31

[[record]]
sequence_data = "LPPPGSSPRATS"
test_result = 0.718

[[record]]
sequence_data = "CGGFAEGGGCRM"
test_result = 0.697

[[record]]
sequence_data = "QIQRLGGGGHCG"
test_result = 0.762

[[record]]
sequence_data = "SIQRKIRRMKEN"
test_result = 0.469


Value sought for every listed sequence: protein stability index.
1. WGREGRVPGWAG
2. RGVGVRYGVARR
3. VLSVGQVGRCVS
4. RVGWVVVLGCVG

Response:
1. 0.671
2. 0.67
3. 0.642
4. 0.479

###

Test system: Saccharomyces cerevisiae
assay procedure: protein stability index of tFT-peptide fusion (C-terminal peptide) (PSI (0-1 scale)); higher = more stable (slower turnover)
measurement context: genetic background: wild type; temperature: 30 C
attribute measured: protein stability index
Give bare numbers.

[[record]]
sequence_data = "AAARTGIATLRT"
test_result = 0.691

[[record]]
sequence_data = "VRFPCGFCKKLS"
test_result = 0.637

[[record]]
sequence_data = "GWRGGGSRELKW"
test_result = 0.743


Value sought for every listed sequence: protein stability index.
1. RVRGAPGLRHES
2. IKKRDKAKKEYI
3. CCTPSFANVRDG
4. RLPSPPTAPAPP
5. TTRTAAKKIHKD
6. SRDRRASPPLPP
7. SLPSHPLPDPSR

Response:
1. 0.5
2. 0.672
3. 0.7
4. 0.658
5. 0.74
6. 0.722
7. 0.67

Value sought for every listed sequence: protein stability index.
1. SCYRSCGALLSA
2. PTRPPNEPTVHP
3. SFTGSASYPKGR

Response:
1: 0.694; 2: 0.659; 3: 0.667

Value sought for every listed sequence: protein stability index.
1. MRGPAWVCVLYS
2. KKKKKKKTQTNK
3. LFENNGIKCHKR
4. GPWGGRLSWAPG
5. PCPPAPPRFLLR
6. ALLMVCFGFSLV

Response:
0.485
0.692
0.683
0.636
0.732
0.422
